biological target: hSA (Homo sapiens, UniProt P02768); test: hSA binding assay (hSA-coated microtiter plate, streptavidin-polyHRP/ABTS, OD 405 nm)
Sequence (P02768 25-609): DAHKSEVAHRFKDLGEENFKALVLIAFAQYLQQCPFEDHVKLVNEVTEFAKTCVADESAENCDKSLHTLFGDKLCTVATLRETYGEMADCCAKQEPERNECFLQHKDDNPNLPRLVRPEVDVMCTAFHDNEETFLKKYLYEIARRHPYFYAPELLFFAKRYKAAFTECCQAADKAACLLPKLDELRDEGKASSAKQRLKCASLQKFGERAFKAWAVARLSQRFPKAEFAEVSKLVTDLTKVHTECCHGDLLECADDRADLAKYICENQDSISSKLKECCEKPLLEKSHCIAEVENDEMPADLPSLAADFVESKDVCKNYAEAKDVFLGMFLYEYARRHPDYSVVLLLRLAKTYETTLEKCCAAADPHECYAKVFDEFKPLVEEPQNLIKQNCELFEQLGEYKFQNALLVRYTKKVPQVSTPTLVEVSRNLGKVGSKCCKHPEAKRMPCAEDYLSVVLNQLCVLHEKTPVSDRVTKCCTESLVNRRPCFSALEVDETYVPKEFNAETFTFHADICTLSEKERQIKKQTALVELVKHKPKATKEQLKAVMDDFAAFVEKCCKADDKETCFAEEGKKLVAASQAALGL
The label depends only on Binding, Exp 1: satisfied if it is at least 0.07, not satisfied if it is smaller.

Solved cases (8 shown):
**Q:** Is the recorded value of Binding, Exp 1 equal to or greater than 0.07 for this sequence? KVIEDICPCLW [Compound 64, KVIEDI-LW, "-" represents cysteine-proline-cysteine]
**A:** satisfied

**Q:** Please check the record RLIEDICPCQW [Compound 60, RLIEDI-QW, "-" represents cysteine-proline-cysteine] and state if its Binding, Exp 1 is at or above 0.07.
**A:** satisfied

**Q:** hey, is Binding, Exp 1 for this one >= 0.07? RLIEDICPCAW [Compound 59, RLIEDI-AW, "-" represents cysteine-proline-cysteine]
**A:** satisfied

**Q:** Dear colleague, could you confirm whether RQIEDICPCLW [Compound 2, RQIEDI-LW, "-" represents cysteine-proline-cysteine] has Binding, Exp 1 at or above 0.07?
**A:** not satisfied

**Q:** For this sequence, is measured Binding, Exp 1 0.07 or higher? KLIEDICPCLE [Compound 49, KLIEDI-LE, "-" represents cysteine-proline-cysteine]
**A:** satisfied

**Q:** Binding, Exp 1 >= 0.07 for KLLEDICPCLW [Compound 9, KLLEDI-LW, "-" represents cysteine-proline-cysteine] ?
**A:** not satisfied

**Q:** Please indicate if the recorded Binding, Exp 1 for RLIEDICPCLW [Compound 50, RLIEDI-LW, "-" represents cysteine-proline-cysteine] meets or exceeds 0.07.
**A:** satisfied

**Q:** Could you tell me if the measured Binding, Exp 1 of KLIEDICPCLW [Compound 26, KLIEDI-LW, "-" represents cysteine-proline-cysteine] reaches 0.07 or more?
**A:** satisfied

***
**Q:** Quick check, Binding, Exp 1 >= 0.07? KLIEDVCPCLW [Compound 56, KLIEDV-LW, "-" represents cysteine-proline-cysteine]
**A:** satisfied

**Q:** Kindly determine if Binding, Exp 1 recorded for RLIEVICPCLW [Compound 37, RLIEVI-LW, "-" represents cysteine-proline-cysteine] is above or exactly 0.07.
**A:** satisfied

**Q:** Would you say KLIEDQCPCLW [Compound 55, KLIEDQ-LW, "-" represents cysteine-proline-cysteine] shows Binding, Exp 1 at minimum 0.07?
**A:** satisfied

**Q:** Is Binding, Exp 1 at least 0.07? Consider KLIEVICPCLW [Compound 5, KLIEVI-LW, "-" represents cysteine-proline-cysteine]
**A:** not satisfied

**Q:** Is it the case that RLIKDICPCLW [Compound 36, RLIKDI-LW, "-" represents cysteine-proline-cysteine] has Binding, Exp 1 reaching or exceeding 0.07?
**A:** satisfied

**Q:** Is Binding, Exp 1 at least 0.07? Consider RLIEDICPCLK [Compound 66, RLIEDI-LK, "-" represents cysteine-proline-cysteine]
**A:** satisfied

**Q:** Could you tell me if the measured Binding, Exp 1 of RLTEDICPCLW [Compound 7, RLTEDI-LW, "-" represents cysteine-proline-cysteine] reaches 0.07 or more?
**A:** not satisfied

**Q:** Tell me whether Binding, Exp 1 is at least 0.07 here: RLIEEICPCLW [Compound 57, RLIEEI-LW, "-" represents cysteine-proline-cysteine]
**A:** satisfied

**Q:** Item KLISDICPCLW [Compound 3, KLISDI-LW, "-" represents cysteine-proline-cysteine] with Binding, Exp 1 of 0.07 or above?
**A:** not satisfied

**Q:** Check if Binding, Exp 1 >= 0.07 (inclusive). Item: RLIDDICPCLW [Compound 6, RLIDDI-LW, "-" represents cysteine-proline-cysteine]
**A:** not satisfied

**Q:** API: above_or_equal(metric=Binding, Exp 1, cutoff=0.07) for item KLVEDICPCLW [Compound 41, KLVEDI-LW, "-" represents cysteine-proline-cysteine]
**A:** satisfied

**Q:** Hello, I need to know if KLIEDICPCQW [Compound 48, KLIEDI-QW, "-" represents cysteine-proline-cysteine] has measured Binding, Exp 1 not below 0.07. Thanks!
**A:** satisfied
